# Subject of test: T1, native human glycophorin A protein (human, UniProt P02724 20-150)
# T1 construct: mature; also called Hu-nat GPA
# T1 sequence (looked up): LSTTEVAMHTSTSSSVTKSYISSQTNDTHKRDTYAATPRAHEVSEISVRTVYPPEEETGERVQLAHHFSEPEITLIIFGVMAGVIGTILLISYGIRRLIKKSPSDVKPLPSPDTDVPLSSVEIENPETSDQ
# Experimental protocol: ELISA, Fab on coated native human GPA
Quantity measured: binding in ELISA relative to parental Fab

Check out these entries, answers already filled in.
[[record]]
binder = "TPP-5839, Hu6C12-24 Fab variant VL: (S24R, A26S, S49A, P54Q, F95Y); VH: (I48M, D66G, L70M, T72R) (Fab, V domains shown, Built on the parental Fab TPP-4935) VH: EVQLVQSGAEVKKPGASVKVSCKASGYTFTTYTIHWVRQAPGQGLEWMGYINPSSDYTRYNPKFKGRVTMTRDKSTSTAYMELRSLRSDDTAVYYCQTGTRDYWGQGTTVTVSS VL: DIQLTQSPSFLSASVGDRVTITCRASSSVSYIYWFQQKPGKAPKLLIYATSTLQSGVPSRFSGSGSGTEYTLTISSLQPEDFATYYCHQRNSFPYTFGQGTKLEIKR"
recorded_value = "5.8 relative to parental Fab"

[[record]]
binder = "TPP-5704, Hu6C12-24 Fab variant VL: (N91D) (Fab, V domains shown, Built on the parental Fab TPP-4935) VH: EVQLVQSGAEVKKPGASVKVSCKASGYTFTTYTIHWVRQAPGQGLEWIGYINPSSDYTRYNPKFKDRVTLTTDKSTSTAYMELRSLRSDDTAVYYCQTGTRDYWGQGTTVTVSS VL: DIQLTQSPSFLSASVGDRVTITCSAASSVSYIYWFQQKPGKAPKLLIYSTSTLPSGVPSRFSGSGSGTEYTLTISSLQPEDFATYYCHQRDSFPFTFGQGTKLEIKR"
recorded_value = "1 relative to parental Fab"

[[record]]
binder = "TPP-5337, Hu6C12-24 Fab variant VH: (Q97A, T98R) (Fab, V domains shown, Built on the parental Fab TPP-4935) VH: EVQLVQSGAEVKKPGASVKVSCKASGYTFTTYTIHWVRQAPGQGLEWIGYINPSSDYTRYNPKFKDRVTLTTDKSTSTAYMELRSLRSDDTAVYYCARGTRDYWGQGTTVTVSS VL: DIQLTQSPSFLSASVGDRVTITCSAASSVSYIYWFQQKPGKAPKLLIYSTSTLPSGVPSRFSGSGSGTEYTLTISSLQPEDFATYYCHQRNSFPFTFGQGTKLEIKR"
recorded_value = "0.1 relative to parental Fab"

[[record]]
binder = "TPP-5842, Hu6C12-24 Fab variant VL: (S24R, A26S, S49A, P54Q, F95Y); VH: (D66G, L70M, T72R) (Fab, V domains shown, Built on the parental Fab TPP-4935) VH: EVQLVQSGAEVKKPGASVKVSCKASGYTFTTYTIHWVRQAPGQGLEWIGYINPSSDYTRYNPKFKGRVTMTRDKSTSTAYMELRSLRSDDTAVYYCQTGTRDYWGQGTTVTVSS VL: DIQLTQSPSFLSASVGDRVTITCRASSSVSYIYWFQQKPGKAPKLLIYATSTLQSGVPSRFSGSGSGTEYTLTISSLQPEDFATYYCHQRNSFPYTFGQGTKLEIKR"
recorded_value = "5.9 relative to parental Fab"


Kindly review the next binder as well.
Challenge: Name the reported binding in ELISA relative to parental Fab value associated with the binder TPP-5698, Hu6C12-24 Fab variant VL: (S24R, A26S) (Fab, V domains shown, Built on the parental Fab TPP-4935) VH: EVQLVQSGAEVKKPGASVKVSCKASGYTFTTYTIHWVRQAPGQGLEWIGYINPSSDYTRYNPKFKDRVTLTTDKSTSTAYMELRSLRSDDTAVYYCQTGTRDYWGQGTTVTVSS VL: DIQLTQSPSFLSASVGDRVTITCRASSSVSYIYWFQQKPGKAPKLLIYSTSTLPSGVPSRFSGSGSGTEYTLTISSLQPEDFATYYCHQRNSFPFTFGQGTKLEIKR
Response given: 1.6 relative to parental Fab
